Would you mind telling me the reported composite z-score of each entry?
- Tested on: PRMT1 (protein arginine N-methyltransferase 1)
- ASSAY_NAME: small molecules binding arginine methyltransferase PRMT1 – biochemical, small-molecule microarray, 635 nm fluorescence, primary screen (AID 1088)
- CONDITION_CONTEXT: higher = more signal
Give bare numbers.

CC(C)NC(=O)[C@@]1(Cc2ccccc2I)c2ccccc2C(=O)N(Cc2ccccc2Cl)[C@H]1c1ccc(CO)cc1 : 1.51
NC(=O)[C@@]1(Cc2ccccc2)N=C(c2ccc(OCCCO)cc2)O[C@H]1c1ccccc1 : 0.439
COCCOC(=O)N1C(=O)[C@@]2(c3ccccc31)[C@H](c1ccc(OCCO)cc1)N1[C@H](c3ccccc3)[C@H](c3ccccc3)OC(=O)[C@H]1[C@@H]2C(=O)N1CCc2cc(OC)c(OC)cc2C1 : 1.53
O=C1N(CCS(=O)(=O)c2ccccc2)c2ccccc2[C@@H]2OC(c3ccc(OCCCO)cc3)=N[C@]12Cc1ccccc1 : 1.56
COCCCNC(=O)[C@@H]1c2ccccc2C(=O)N(Cc2ccccc2)[C@H]1c1ccc(CO)cc1 : 0.726

Could you tell me composite z-score for each of these compounds? They are listed below.
1. COC(=O)[C@@]1(Cc2ccc(OC)cc2)[C@H]2c3cc(C(=O)N4CCCC4)n(CCCNc4ncc(C(F)(F)F)cc4Cl)c3C[C@H]2CN1C(=O)c1ccccc1
2. [N-]=[N+]=NCc1ccccc1[C@H]1OC(c2ccc(OCCCO)cc2)=N[C@@]1(Cc1ccccc1)C(=O)N1CCCCC1

0.0457
1.55
